- Test system: β-galactosidase in CMV-LacZ C2C12 myoblasts
- assay.comment: CMV-LacZ secondary screen in C2C12 myoblasts (β-Gal stabilizing assay)
- Type: cell-based, mouse
- assay.setup: 10 uM; CMV-LacZ C2C12 myoblasts
Answer each item with its documented CMV-LACZ in Myoblasts (β-galactosidase activity relative to DMSO).

Query: Which CMV-LACZ in Myoblasts (β-galactosidase activity relative to DMSO) value is on record for O=C(O)C(Cc1ccc(O)cc1)N1C(=O)c2ccccc2C1=O (centres unmarked) ?
Result: 0.9792

Query: What does the record list as CMV-LACZ in Myoblasts (β-galactosidase activity relative to DMSO) for c1ccc(-c2nn[nH]n2)nc1 ?
Result: 0.9687

Query: Look at this compound and give its reported CMV-LACZ in Myoblasts (β-galactosidase activity relative to DMSO). Cc1ccccc1S(=O)(=O)N1C[C@H]2CON(C)[C@H]2C[C@H]1c1cccc(-c2ccccc2)c1
Result: 1.0392

Query: # input compound: N#C/C(=C/c1ccc(N2CCOCC2)o1)C(=O)Nc1ccccc1 ; wanted: its CMV-LACZ in Myoblasts (β-galactosidase activity relative to DMSO)
Result: 1.0813

Query: Record request: CMV-LACZ in Myoblasts (β-galactosidase activity relative to DMSO) value, item Cc1cccc(NCC(=O)N/N=C\c2ccccn2)c1
Result: 1.2515

Reference for the values: patent US9980943B2
